B1: VPS39 (parent)
chain: TTLLKCYLHTNVALVAPLLRLENN

variants of: B1; assay: protein stability index of a GFP-peptide fusion (GPS, HEK-293T) (PSI 1-6); higher = more stable; conditions: c terminus: a fixed tail appended;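 further: lentivirally expressed fusions sorted by FACS into six bins by GFP to DsRed ratio, PSI derived from sequencing read proportions per bin multiplied by bin number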
measured_property: protein stability index
Keep the answer to the number alone.

### Prompt Which value of protein stability index has been reported for C6Q in the records?
### Response 3.64

### Prompt Which protein stability index value is on record for N23V ?
### Response 2.67

### Prompt # query: protein stability index of entry L14F
### Response 1.55

### Prompt May I ask what protein stability index has been recorded for L21E ?
### Response 2.09

### Prompt Sample Y7D — what was its protein stability index?
### Response 2.27

### Prompt Name the recorded protein stability index for T1C .
### Response 1.07

### Prompt # get_value(readout='protein stability index', item= A16N )
### Response 2.16

### Prompt Would you kindly share the measured protein stability index for A13K ?
### Response 2.63

### Prompt Fill in the blank: the reported protein stability index of L19V is ____.
### Response 2.79

### Prompt So what does the record say about protein stability index for N24I ?
### Response 2.02

### Prompt // lookup protein stability index for L3K
### Response 2.1

### Prompt State the recorded protein stability index for this entry: R20E
### Response 1.83

### Prompt Suppose we examine the variant A16T ; what protein stability index value has been reported?
### Response 2.94

### Prompt Which protein stability index value belongs to R20K ?
### Response 3.52

### Prompt Recorded protein stability index for L3A , please?
### Response 3.88

### Prompt Recorded protein stability index for T1K , please?
### Response 3.52

### Prompt What measured protein stability index goes with L4G ?
### Response 3.33

### Prompt # query: protein stability index of entry L18E
### Response 1.55

### Prompt For K5T , what is its reported protein stability index?
### Response 2.57

### Prompt Given the entry L21F , report its measured protein stability index.
### Response 3.04
